Listing of entries alongside the reported Foxtail, Green plant response rating (0 to 100 scale).
- System: green foxtail (Setaria viridis)
- protocol_description: Test A postemergence application, visual injury rating 0-100
- Type: in vivo
- run_conditions: Postemergence, 16 g ai/ha, greenhouse 10 days; 0 no effect, 100 complete control
experimental_endpoint: Foxtail, Green plant response rating (0 to 100 scale)

compound="CC1(C(=O)NC2CC=C(C(=O)NS(C)(=O)=O)C2)CN(c2cc(F)cc(F)c2)C(=O)O1 (racemic)" quantitative_readout=0
compound="C=CC1(C(=O)NC2CC(C(=O)OC)C2)CN(c2cc(F)cc(F)c2)C(=O)O1 (stereo not shown) [Compound 173]" quantitative_readout=90
compound="CC1(C(=O)NC2CC=C(C(=O)OCC(F)(F)F)C2)CN(c2cc(F)cc(Cl)c2)C(=O)O1 (stereo not shown)" quantitative_readout=90
compound="CC1(C(=O)NC2CC=C(C(=O)NS(=O)(=O)C(C)(C)C)C2)CN(c2cc(F)cc(F)c2)C(=O)O1 (racemic)" quantitative_readout=0
compound="COC(=O)C1=CCC(NC(=O)C2(C)CN(c3cc(F)c(F)c(F)c3)C(=O)O2)C1 (mixture of isomers)" quantitative_readout=50
compound="C=CC1(C(=O)NC2C=CC(C(=O)OC)C2)CN(c2cc(F)cc(F)c2)C(=O)O1 (single isomer, unassigned)" quantitative_readout=90
compound="CCOC(=O)C1=CCC(NC(=O)C2(C)CN(c3cc(Cl)cc(Cl)c3)C(=O)O2)C1 (stereo not shown) [Compound 114]" quantitative_readout=80

* * *

Listing of entries alongside the reported Wheat plant response rating.
- Tested on: wheat (Triticum aestivum)
- protocol_description: Test A preemergence soil spray, visual injury rating 0-100
- Type: in vivo
- run_conditions: 16 g ai/ha, 0 to 100 scale, 10 days
experimental_endpoint: Wheat plant response rating

molecule="COC(=O)C1C=CC(NC(=O)C2(C)CN(c3cc(F)cc(F)c3)C(=O)O2)C1 (stereo not drawn)" quantitative_readout=90
molecule="COC(=O)C1C=CC(NC(=O)C2(C(F)(F)F)CN(c3cc(F)c(F)c(F)c3)C(=O)O2)C1 (mixture of isomers)" quantitative_readout=20
molecule="C=CC1(C(=O)NC2COC(C(=O)OC)C2)CN(c2cc(F)cc(F)c2)C(=O)O1 (stereo not drawn)" quantitative_readout=0

* * *

- System: oat, wild (wild oat, Avena fatua)
- protocol_description: Test A preemergence soil spray, visual injury rating 0-100
- Type: in vivo
- run_conditions: 62 g ai/ha, 10 days, 0 = no effect, 100 = complete control
Threshold check on Oat, Wild plant response rating (0-100): strictly below 30 is 1; on or above 30 is 0.

compound="CC1(C(=O)NC2CC=C(C(=O)OCC(F)F)C2)CN(c2cc(Cl)cc(Cl)c2)C(=O)O1 (centres unmarked) [Compound 153]" answer_label=1
compound="COC(=O)C1C=CC(NC(=O)C2(C)CN(c3cc(C)cc(C)c3)C(=O)O2)C1 (centres unmarked)" answer_label=0
compound="CC(C)COC(=O)C1=CCC(NC(=O)C2(C)CN(c3cc(F)cc(F)c3)C(=O)O2)C1 (centres unmarked)" answer_label=0
compound="CC1(C(=O)NC2CC=C(C(=O)OCC(F)F)C2)CN(c2cc(Cl)cc(Cl)c2)C(=O)O1 (centres unmarked) [Compound 154]" answer_label=1
compound="C=CC1(C(=O)NC2C=CC(C(=O)O)C2)CN(c2cc(F)cc(F)c2)C(=O)O1 (mixture of isomers)" answer_label=0
compound="COC(=O)COC(=O)C1=CCC(NC(=O)C2(C)CN(c3cc(Cl)cc(Cl)c3)C(=O)O2)C1 (centres unmarked)" answer_label=1
compound="CC(C)OC(=O)C1=CCC(NC(=O)C2(C)CN(c3cc(F)cc(F)c3)C(=O)O2)C1 (centres unmarked)" answer_label=0
compound="COC(=O)C1CC(NC(=O)C2(C)CN(c3cc(F)cc(F)c3)C(=O)O2)C1 (centres unmarked) [Compound 130]" answer_label=0
compound="CC1(C(=O)NC2CC=C(C(=O)OCC3CC3)C2)CN(c2cc(F)cc(Cl)c2)C(=O)O1 (centres unmarked)" answer_label=1
